Data provenance is ChEMBL document CHEMBL5113402.

procedure_text: Octanol-water partition coefficient, logP of the compound incubated for 1 hr by HPLC analysis
Type: physicochemical
measurement_name: logP at 1 h
Just the number.

Task: # query: logP at 1 h of entry O=c1cc(-c2ccc(C(F)(F)F)cc2)oc2ccccc12
Output: 4.06

###

Organism: Homo sapiens
procedure_text: Selectivity index, log ratio of Inhibition of CYP450 in human liver microsomes assessed as inhibition of EpETrE formation in presence of arachidonic acid to Inhibition of CYP450 in human liver microsomes assessed as inhibition of 20-HETE formation in presence of arachidonic acid
Kindly supply the reported log(ratio) values for the records listed here.
Just the number.

Task: # query: log(ratio) of entry COc1ccc(-c2coc3cc(O)cc(O)c3c2=O)cc1
Output: 0.25

Task: Subsequent entry: COc1ccccc1-c1cc(=O)c2ccccc2o1
Output: -0.4

Task: Subsequent entry: COc1cccc(-c2coc3ccccc3c2=O)c1
Output: 0

Task: Subsequent entry: COc1ccc(-c2cc(=O)c3cc(OC)ccc3o2)cc1
Output: 0

Task: Subsequent entry: COc1ccc(-c2cc(=O)c3ccccc3o2)cc1
Output: 0.13

Task: Subsequent entry: Cc1ccc(-c2cc(=O)c3ccccc3o2)cc1
Output: 0.07

Task: Subsequent entry: COc1ccc2oc(-c3ccc(C(F)(F)F)cc3)cc(=O)c2c1
Output: 0.59

Task: Subsequent entry: COc1ccc2oc(-c3ccc(OC)c(OC)c3)cc(=O)c2c1
Output: 0.07

Task: Subsequent entry: O=c1cc(-c2ccc(Br)cc2)oc2ccc(O)cc12
Output: 0

Task: Subsequent entry: O=c1cc(-c2ccc(Br)cc2)oc2ccccc12
Output: 0.4

Task: Subsequent entry: COc1ccc2oc(-c3ccccc3)cc(=O)c2c1
Output: -0.05

Task: Subsequent entry: O=c1c(-c2ccccc2)coc2ccccc12
Output: 0.19

Task: Subsequent entry: O=c1cc(-c2ccc(C(F)(F)F)cc2)oc2ccccc12
Output: 0.58

Task: Subsequent entry: O=c1cc(-c2ccccc2)oc2cc(O)c(O)c(O)c12
Output: -0.36

Task: Subsequent entry: COc1ccccc1-c1coc2ccccc2c1=O
Output: -0.15

Task: Subsequent entry: O=c1cc(-c2ccc(O)c(O)c2)oc2ccc(O)cc12
Output: 0.29

Task: Subsequent entry: COc1ccc(-c2cc(=O)c3ccccc3o2)cc1OC
Output: 0.08

Task: Subsequent entry: O=c1cc(-c2ccc(O)c(O)c2)oc2ccccc12
Output: 0.17

Task: Subsequent entry: COc1cccc(-c2cc(=O)c3cc(OC)ccc3o2)c1
Output: -0.09

Task: Subsequent entry: COc1ccc(-c2coc3ccccc3c2=O)cc1
Output: 0.18

Task: Subsequent entry: O=c1c(-c2ccc(O)cc2)coc2cc(O)cc(O)c12
Output: 0.49

Task: Subsequent entry: O=c1cc(-c2ccc(O)cc2)oc2ccccc12
Output: 0.05

Task: Subsequent entry: COc1cc2oc(-c3ccccc3)cc(=O)c2c(OC)c1OC
Output: -0.09

###

assayed_target: Cytochrome P450 4F2 (Homo sapiens, UniProt P78329)
Sequence (P78329 whole entry): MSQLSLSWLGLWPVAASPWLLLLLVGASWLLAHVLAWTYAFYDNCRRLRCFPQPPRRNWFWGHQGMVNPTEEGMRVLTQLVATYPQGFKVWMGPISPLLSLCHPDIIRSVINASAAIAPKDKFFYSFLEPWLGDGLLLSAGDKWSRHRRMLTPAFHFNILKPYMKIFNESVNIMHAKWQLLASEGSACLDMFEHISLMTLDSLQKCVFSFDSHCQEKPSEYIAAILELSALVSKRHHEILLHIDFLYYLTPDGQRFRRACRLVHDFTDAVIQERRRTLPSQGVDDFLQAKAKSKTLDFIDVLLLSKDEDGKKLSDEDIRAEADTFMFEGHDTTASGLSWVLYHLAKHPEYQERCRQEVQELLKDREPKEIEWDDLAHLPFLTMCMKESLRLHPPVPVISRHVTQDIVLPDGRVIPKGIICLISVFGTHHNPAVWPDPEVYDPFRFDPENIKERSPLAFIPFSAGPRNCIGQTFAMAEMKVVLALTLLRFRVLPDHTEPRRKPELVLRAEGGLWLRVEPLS
procedure_text: Inhibition of recombinant human CYP4F2 expressed in baculovirus-infected insect cells in presence of arachidonic acid and NADPH incubated for 15 mins by jump-dilution assay relative to control
Format: ADME
measurement_name: IC50

Task: # query: IC50 of entry O=c1cc(-c2ccc(C(F)(F)F)cc2)oc2ccccc12
Output: 0.76 µM

###

procedure_text: Apparent permeability of the compound by PAMPA assay
Assay type: ADME
measurement_name: Papp

Task: # query: Papp of entry O=c1cc(-c2ccc(C(F)(F)F)cc2)oc2ccccc12
Output: 4.6 ×10⁻⁶ cm/s

###

assayed_target: Cytochrome P450 2J2 (Homo sapiens, UniProt P51589)
Sequence (P51589 whole entry): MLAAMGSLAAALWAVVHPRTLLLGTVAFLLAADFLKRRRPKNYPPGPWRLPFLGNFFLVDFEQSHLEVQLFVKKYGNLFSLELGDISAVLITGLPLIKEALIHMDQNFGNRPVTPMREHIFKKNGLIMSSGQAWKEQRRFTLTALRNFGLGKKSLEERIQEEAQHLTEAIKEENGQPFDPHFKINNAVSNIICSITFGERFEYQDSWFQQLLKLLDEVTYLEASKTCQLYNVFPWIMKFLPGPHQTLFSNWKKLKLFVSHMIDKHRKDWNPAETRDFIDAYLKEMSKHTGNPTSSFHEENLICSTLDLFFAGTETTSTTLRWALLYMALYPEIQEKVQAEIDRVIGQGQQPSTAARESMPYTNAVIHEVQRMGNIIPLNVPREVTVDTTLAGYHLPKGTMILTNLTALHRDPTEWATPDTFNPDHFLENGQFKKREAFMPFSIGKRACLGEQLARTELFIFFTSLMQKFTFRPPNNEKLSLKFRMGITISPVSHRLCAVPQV
procedure_text: Inhibition of recombinant human CYP2J2 expressed in baculovirus-infected insect cells in presence of arachidonic acid and NADPH incubated for 15 mins by jump-dilution assay relative to control
measurement_name: IC50
Your reply should be a number followed by the unit it is expressed in.

Task: # query: IC50 of entry O=c1cc(-c2ccc(C(F)(F)F)cc2)oc2ccccc12
Output: 50 µM

###

procedure_text: Apparent permeability of the compound in human Caco-2 cells
Assay type: ADME, cell-based
measurement_name: Papp (×10⁻⁶ cm/s)
Give the quantity in ×10⁻⁶ cm/s, number only.

Task: # query: Papp of entry O=c1cc(-c2ccc(C(F)(F)F)cc2)oc2ccccc12
Output: 4.1

###

assayed_target: CYP450 (20-HETE formation) (Homo sapiens, UniProt P04798+P05177+P05181+P08684+P10632+P10635+P11509+P11712+P13584+P20813+P20815+P20853+P24462+P24903+P33260+P33261+P51589+P78329+P98187+Q02928+Q08477+Q16678+Q16696+Q5TCH4+Q6VVX0+Q7Z449+Q8TAV3+Q96SQ9+Q9HB55)
procedure_text: Inhibition of CYP450 in human liver microsomes assessed as inhibition of 20-HETE formation in presence of arachidonic acid and NADPH by multi-enzyme assay based LC-MS/MS analysis
Format: ADME, Microsome
experimental_context: probe arachidonic acid
measurement_name: IC50 (µM)
Give the quantity in µM, number only.

Task: # query: IC50 of entry O=c1cc(-c2ccc(C(F)(F)F)cc2)oc2ccccc12
Output: 4.9

###

Species: Homo sapiens
procedure_text: Selectivity index, log ratio of Inhibition of CYP450 in human liver microsomes assessed as inhibition of EpETrE formation in presence of arachidonic acid to Inhibition of CYP450 in human liver microsomes assessed as inhibition of 20-HETE formation in presence of arachidonic acid
measurement_name: log(ratio)
Just the number.

Task: # query: log(ratio) of entry O=c1cc(-c2ccccc2O)oc2ccccc12
Output: -0.29

Task: Subsequent entry: COc1ccc(-c2coc3ccccc3c2=O)cc1OC
Output: 0.22

Task: Subsequent entry: O=c1cc(-c2ccccc2)oc2ccccc12 [FLAVONE]
Output: 0

Task: Subsequent entry: COc1ccc2oc(-c3ccc(Br)cc3)cc(=O)c2c1
Output: 0.16

Task: Subsequent entry: O=c1cc(-c2ccccc2)oc2ccc(O)cc12 [6-HYDROXYFLAVONE]
Output: -0.01

###

procedure_text: Inhibition of CYP450 in Sprague-Dawley rat liver microsomes assessed as inhibition of 20-HETE formation in presence of arachidonic acid and NADPH by multi-enzyme assay based LC-MS/MS analysis relative to control
Type: ADME, Microsome
measurement_name: IC50 (nM)
Give the quantity in nM, number only.

Task: # query: IC50 of entry O=c1cc(-c2ccc(C(F)(F)F)cc2)oc2ccccc12
Output: 1400

###

assayed_target: CYP450 (20-HETE formation) (Homo sapiens, UniProt P04798+P05177+P05181+P08684+P10632+P10635+P11509+P11712+P13584+P20813+P20815+P20853+P24462+P24903+P33260+P33261+P51589+P78329+P98187+Q02928+Q08477+Q16678+Q16696+Q5TCH4+Q6VVX0+Q7Z449+Q8TAV3+Q96SQ9+Q9HB55)
procedure_text: Inhibition of CYP450 in human liver microsomes assessed as inhibition of 20-HETE formation at 10 uM in presence of arachidonic acid and NADPH by multi-enzyme assay based LC-MS/MS analysis relative to control
Assay type: ADME, Microsome
experimental_context: probe arachidonic acid
measurement_name: inhibition at 10 µM (%)
Give the quantity in %, number only.

Task: # query: inhibition at 10 µM of entry COc1ccc(-c2cc(=O)c3ccccc3o2)cc1
Output: 27

Task: Subsequent entry: COc1ccc(-c2cc(=O)c3ccccc3o2)cc1OC
Output: 18

Task: Subsequent entry: COc1ccc(-c2coc3cc(O)cc(O)c3c2=O)cc1
Output: 25

Task: Subsequent entry: O=c1cc(-c2ccc(O)c(O)c2)oc2ccc(O)cc12
Output: 26

Task: Subsequent entry: COc1ccc(-c2coc3ccccc3c2=O)cc1OC
Output: 27

Task: Subsequent entry: COc1ccc2oc(-c3ccc(Br)cc3)cc(=O)c2c1
Output: 17

Task: Subsequent entry: O=c1cc(-c2ccc(C(F)(F)F)cc2)oc2ccccc12
Output: 53

Task: Subsequent entry: COc1ccc2oc(-c3ccc(C(F)(F)F)cc3)cc(=O)c2c1
Output: 55

Task: Subsequent entry: O=c1cc(-c2ccc(O)c(O)c2)oc2ccccc12
Output: 32

Task: Subsequent entry: O=c1c(-c2ccc(O)cc2)coc2cc(O)cc(O)c12
Output: 39

Task: Subsequent entry: Cc1ccc(-c2cc(=O)c3ccccc3o2)cc1
Output: 32

Task: Subsequent entry: O=c1cc(-c2ccc(Br)cc2)oc2ccccc12
Output: 35
